Each recorded value in this set is attributed to ChEMBL document CHEMBL1961873.

# test target: Serine/threonine-protein kinase D1 (Homo sapiens);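 note: each value is an averaged percent inhibition of PRKD1 kinase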
# particulars: at 1 µM
observation type: inhibition (%)
Quick note: give the figure in %, leave out the unit.

INSERT INTO assay_data (compound, observation_type, u, number) VALUES
  ('CS(=O)(=O)Nc1ccc(N/C=C2\C(=O)Nc3ccccc32)cc1', 'inhibition', '%', 3.18),
  ('CN1CCC(C(=O)Nc2n[nH]c3nnc(-c4ccccc4)cc23)CC1', 'inhibition', '%', 6.32),
  ('COc1ccc2cc(-c3c(-c4ccncc4)nc(-c4ccc([S+](C)[O-])cc4)n3C)ccc2c1 (stereo not given)', 'inhibition', '%', 5.01);

**Query** Indicate its recorded inhibition; the compound in question is "Cn1cc(C=C2C(=O)Nc3cccnc32)c2ccccc21"
**Result** 10.6

**Query** Indicate its recorded inhibition; the compound in question is "COc1cc2c(cc1Nc1nc(N3CCc4ccccc43)c3cc[nH]c3n1)N(C(=O)CN(C)C)CC2"
**Result** 3.76

**Query** Indicate its recorded inhibition; the compound in question is "NCc1ccc(-c2nc(-c3ccc(Cl)c(O)c3)c(-c3ccncc3)[nH]2)cc1"
**Result** 2.64

**Query** Indicate its recorded inhibition; the compound in question is "Cc1cccc(-c2n[nH]cc2-c2ccc3ncccc3n2)n1"
**Result** 32.8

**Query** Indicate its recorded inhibition; the compound in question is "CN(C)c1cc2c(Nc3ccc4nc(Cc5ccccc5)[nH]c4c3)ncnc2cn1"
**Result** 6.67

**Query** Indicate its recorded inhibition; the compound in question is "CCCN1CCC=C(c2ccc(Nc3nc(Nc4ccccc4C(N)=O)c4cc[nH]c4n3)c(C)c2)C1"
**Result** 71.3

**Query** Indicate its recorded inhibition; the compound in question is "N#Cc1c(NC(=O)c2cccc3ccccc23)sc2c1CCCC2"
**Result** 4.24

**Query** Indicate its recorded inhibition; the compound in question is "CCCN1CCC(Oc2cc(Nc3nc(Nc4cccc(F)c4C(N)=O)c4cc[nH]c4n3)c(OC)cc2Cl)CC1"
**Result** 7.94

**Query** Indicate its recorded inhibition; the compound in question is "Cc1nn(C)c2cc(N(C)c3ccnc(Nc4cccc(S(N)(=O)=O)c4)n3)ccc12"
**Result** 4.44

**Query** Indicate its recorded inhibition; the compound in question is "O=C1NC(=O)C(c2ccc(Cl)cc2)=C1Nc1ccc(Cl)c(C(=O)O)c1"
**Result** 0.04

----------
# test target: Tyrosine-protein kinase Fes/Fps (Homo sapiens);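 note: mean inhibition of FES from the GSK PKIS kinase inhibitor screening set, assayed by Nanosyn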
# particulars: at 1 µM
observation type: inhibition (%)
Quick note: give the figure in %, leave out the unit.

INSERT INTO measurements (compound, number) VALUES
  ('CCn1c(-c2nonc2N)nc2ccncc21', 1.98);

Consider the record given below.
**Query** Indicate its recorded inhibition; the compound in question is "Cc1cccc(-c2n[nH]cc2-c2ccc3ncccc3n2)n1"
**Result** -0.18

----------
# Test system: Platelet-derived growth factor receptor alpha (Homo sapiens), P16234 [V561D]
# Sequence (P16234 whole entry V561D): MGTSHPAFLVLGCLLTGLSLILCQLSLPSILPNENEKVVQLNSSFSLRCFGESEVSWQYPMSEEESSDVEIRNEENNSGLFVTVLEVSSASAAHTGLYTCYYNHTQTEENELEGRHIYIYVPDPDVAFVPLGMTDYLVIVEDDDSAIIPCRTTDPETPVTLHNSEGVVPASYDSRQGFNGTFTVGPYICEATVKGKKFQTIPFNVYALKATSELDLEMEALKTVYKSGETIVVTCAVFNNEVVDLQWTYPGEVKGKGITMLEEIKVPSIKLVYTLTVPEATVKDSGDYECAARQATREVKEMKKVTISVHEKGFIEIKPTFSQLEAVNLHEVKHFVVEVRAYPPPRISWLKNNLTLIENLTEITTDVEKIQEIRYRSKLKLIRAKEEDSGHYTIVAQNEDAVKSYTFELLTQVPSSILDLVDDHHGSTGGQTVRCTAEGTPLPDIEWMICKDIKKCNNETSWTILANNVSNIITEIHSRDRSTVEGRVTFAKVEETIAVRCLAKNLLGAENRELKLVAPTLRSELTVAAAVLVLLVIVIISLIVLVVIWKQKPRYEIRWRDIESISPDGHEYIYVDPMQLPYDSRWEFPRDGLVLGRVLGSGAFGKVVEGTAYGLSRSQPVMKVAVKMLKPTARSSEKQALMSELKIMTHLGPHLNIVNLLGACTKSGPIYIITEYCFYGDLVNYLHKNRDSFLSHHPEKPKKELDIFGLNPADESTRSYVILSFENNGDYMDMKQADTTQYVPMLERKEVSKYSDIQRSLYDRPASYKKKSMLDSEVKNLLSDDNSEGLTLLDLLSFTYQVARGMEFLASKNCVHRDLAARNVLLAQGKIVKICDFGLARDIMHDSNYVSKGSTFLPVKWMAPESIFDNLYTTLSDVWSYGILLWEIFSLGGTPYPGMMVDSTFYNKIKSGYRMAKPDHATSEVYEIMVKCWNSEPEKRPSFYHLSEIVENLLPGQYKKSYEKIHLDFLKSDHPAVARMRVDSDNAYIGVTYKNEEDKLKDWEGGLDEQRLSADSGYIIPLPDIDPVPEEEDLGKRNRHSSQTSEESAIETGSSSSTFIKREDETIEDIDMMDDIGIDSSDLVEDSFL
# particulars: at 0.1 µM
observation type: inhibition
State the value, then name its unit.

INSERT INTO results (compound, result) VALUES
  ('COc1cc(C)c(NC(=O)CN(C)C)cc1Nc1nc(Nc2cccc(F)c2C(N)=O)c2cc[nH]c2n1', '1.13%'),
  ('Cc1cc(O)cc(C)c1/C=C/c1cncc(-c2nn[nH]n2)c1', '12.1%'),
  ('CCn1c(-c2nonc2N)nc2cnc(Oc3cccc(NC(=O)c4ccc(OCCN5CCOCC5)cc4)c3)cc21', '3.13%'),
  ('O=C1NC(=O)C(c2ccc(Cl)cc2)=C1Nc1ccc(Cl)c(C(=O)O)c1', '3.89%'),
  ('Cn1cc(C=C2C(=O)Nc3cccnc32)c2ccccc21', '12.4%');

**Query** Indicate its recorded inhibition; the compound in question is "COc1ccc(COc2ccc(Cc3cnc(N)nc3N)cc2OC)cc1"
**Result** 2.4%

**Query** Indicate its recorded inhibition; the compound in question is "COc1cc2ncn(-c3cc(OCc4ccccc4C(F)(F)F)c(C(N)=O)s3)c2cc1OC"
**Result** 36.6%

**Query** Indicate its recorded inhibition; the compound in question is "CC(=O)Nc1cccc(C#Cc2cncnc2Nc2ccc(OCc3cccc(F)c3)c(Cl)c2)n1"
**Result** 3.24%

**Query** Indicate its recorded inhibition; the compound in question is "O=C1NC(=O)C(c2cccc(Cl)c2)=C1Nc1ccc(O)c(Cl)c1"
**Result** 2.63%

**Query** Indicate its recorded inhibition; the compound in question is "COc1cc(C=NNc2ncnc3c2cnn3-c2ccccc2)ccc1O"
**Result** 15.1%
